# ASSAYED_SYSTEM: α-7 nicotinic acetylcholine receptor channel expressed in HEK 293 cells (Rattus norvegicus, UniProt Q05941)
# Construct: expressed in transfected cells
# Sequence (Q05941 23-502): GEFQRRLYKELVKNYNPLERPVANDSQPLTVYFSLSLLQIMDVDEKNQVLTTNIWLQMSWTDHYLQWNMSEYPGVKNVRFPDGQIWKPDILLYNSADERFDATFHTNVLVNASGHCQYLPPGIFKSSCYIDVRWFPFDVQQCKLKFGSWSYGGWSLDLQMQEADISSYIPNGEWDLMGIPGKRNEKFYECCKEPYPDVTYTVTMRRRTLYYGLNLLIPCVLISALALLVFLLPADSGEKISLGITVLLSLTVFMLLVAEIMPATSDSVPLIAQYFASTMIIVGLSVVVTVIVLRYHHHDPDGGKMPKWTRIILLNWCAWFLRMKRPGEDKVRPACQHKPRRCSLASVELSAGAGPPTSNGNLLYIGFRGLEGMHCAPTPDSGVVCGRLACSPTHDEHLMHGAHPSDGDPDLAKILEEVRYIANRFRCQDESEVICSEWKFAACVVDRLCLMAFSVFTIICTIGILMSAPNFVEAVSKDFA
# EXPERIMENT_DESCRIPTION: Ca2+-sensitive fluorescence-based FLIPR assay, α7 nicotinic ACh receptor channel function (agonist)
# Type: cell-based
# MEASUREMENT_SETUP: FLIPR α7 activity rating (EC50, nM), Table Ib; HEK 293 cells, agonist Ca2+ flux
OBSERVATION_TYPE: EC50

// fetch EC50 given entry c1cc(-c2cscn2)cc(NC2=NC[C@@]3(CN4CCC3CC4)O2)n1
< 100 nM

// fetch EC50 given entry Fc1ccc(-c2ccnc(NC3=NC[C@@]4(CN5CCC4CC5)O3)c2)cc1Cl
< 100 nM

// fetch EC50 given entry Cc1nc(NC2=NC[C@@]3(CN4CCC3CC4)O2)cc2ccccc12
< 100 nM

###

# ASSAYED_SYSTEM: α-7 nicotinic acetylcholine receptor channel expressed in HEK 293 cells (Rattus norvegicus)
# Construct: expressed in transfected cells
# EXPERIMENT_DESCRIPTION: Ca2+-sensitive fluorescence-based FLIPR assay, α7 nicotinic ACh receptor channel function (agonist)
# Format: cell-based
# MEASUREMENT_SETUP: FLIPR α7 activity rating (EC50, nM), Table 1; HEK 293 cells, agonist Ca2+ flux
Can you tell me EC50 for the items I'm about to list?

// fetch EC50 given entry COc1ccc(-c2nc(NC3=NC[C@@]4(CN5CCC4CC5)O3)sc2C)cc1
100 to 1000 nM

// fetch EC50 given entry Cc1nc(NC2=NC[C@@]3(CN4CCC3CC4)O2)sc1C
100 to 1000 nM

// fetch EC50 given entry Clc1ccc2nc(NC3=NCC4(CN5CCC4CC5)O3)nn2c1 (centres unmarked)
100 to 1000 nM

// fetch EC50 given entry CC(C)(C)c1csc(NC2=NCC3(CN4CCC3CC4)O2)n1 (centres unmarked)
100 to 1000 nM

// fetch EC50 given entry Cc1ccc2nc(NC3=NCC4(CN5CCC4CC5)O3)sc2c1 (single isomer, unassigned) [Example 12b]
1000 to 100000 nM

###

Can you tell me EC50 for the items I'm about to list?
# ASSAYED_SYSTEM: α-7 nicotinic acetylcholine receptor channel expressed in HEK 293 cells (Rattus norvegicus)
# Construct: expressed in transfected cells
# EXPERIMENT_DESCRIPTION: Ca2+-sensitive fluorescence-based FLIPR assay, α7 nicotinic ACh receptor channel function (agonist)
# Type: cell-based
# MEASUREMENT_SETUP: FLIPR α7 activity rating (EC50, nM), Table 1; HEK 293 cells, agonist Ca2+ flux

// fetch EC50 given entry c1ccc(-c2cnc(NC3=NCC4(CN5CCC4CC5)O3)s2)cc1 (single isomer, unassigned) [Example 4a]
1000 to 100000 nM

// fetch EC50 given entry Clc1cncc(NC2=NC[C@@]3(CN4CCC3CC4)O2)n1 [Example 127]
1000 to 100000 nM

// fetch EC50 given entry c1ccc(-c2ccnc(NC3=NC[C@@]4(CN5CCC4CC5)O3)n2)nc1 [Example 192]
100 to 1000 nM

// fetch EC50 given entry Clc1ccc(-c2cc(NC3=NC[C@@]4(CN5CCC4CC5)O3)ncn2)cc1 [Example 256]
< 100 nM

// fetch EC50 given entry Cc1nc(NC2=NC[C@@]3(CN4CCC3CC4)O2)sc1-c1ccccc1 [Example 189]
100 to 1000 nM

// fetch EC50 given entry c1cncc(-c2cc(NC3=NC[C@@]4(CN5CCC4CC5)O3)ncn2)c1 [Example 244]
< 100 nM

// fetch EC50 given entry c1ccc2c(c1)OCc1cnc(NC3=NC[C@@]4(CN5CCC4CC5)O3)nc1-2 [Example 196]
< 100 nM

// fetch EC50 given entry COc1ccc(-c2csc(NC3=NCC4(CN5CCC4CC5)O3)n2)cc1 (racemic) [Example 20]
100 to 1000 nM

// fetch EC50 given entry CCOc1ccc2nc(NC3=NCC4(CN5CCC4CC5)O3)sc2c1 (centres unmarked) [Example 11]
100 to 1000 nM

// fetch EC50 given entry c1ccc(-c2n[nH]c(NC3=NC[C@@]4(CN5CCC4CC5)O3)n2)cc1 [Example 188]
1000 to 100000 nM

// fetch EC50 given entry c1ccc(-c2cncc(NC3=NC[C@@]4(CN5CCC4CC5)O3)c2)cc1 [Example 28]
1000 to 100000 nM

// fetch EC50 given entry c1cnc2sc(NC3=NC[C@@]4(CN5CCC4CC5)O3)nc2n1 [Example 272]
< 100 nM

// fetch EC50 given entry c1cnnc(NC2=NCC3(CN4CCC3CC4)O2)c1 (racemic) [Example 115]
1000 to 100000 nM

// fetch EC50 given entry COc1ccc2nc(NC3=NCC4(CN5CCC4CC5)O3)sc2n1 (single isomer, unassigned) [Example 2a]
1000 to 100000 nM

// fetch EC50 given entry Brc1cnc(NC2=NC[C@@]3(CN4CCC3CC4)O2)cn1 [Example 136]
< 100 nM

// fetch EC50 given entry c1nc2cc(NC3=NCC4(CN5CCC4CC5)O3)ccc2s1 (centres unmarked) [Example 71]
1000 to 100000 nM

// fetch EC50 given entry COc1ccc(C)c2nc(NC3=NCC4(CN5CCC4CC5)O3)sc12 (centres unmarked) [Example 112]
< 100 nM

// fetch EC50 given entry Cc1ccc2nc(NC3=NCC4(CN5CCC4CC5)O3)nn2c1 (centres unmarked) [Example 74]
< 100 nM

// fetch EC50 given entry Clc1cnc(NC2=NC[C@@]3(CN4CCC3CC4)O2)cc1Cl [Example 252]
< 100 nM

// fetch EC50 given entry c1cc2cn[nH]c2cc1NC1=NCC2(CN3CCC2CC3)O1 (centres unmarked) [Example 78]
1000 to 100000 nM

// fetch EC50 given entry c1nc(NC2=NC[C@@]3(CN4CCC3CC4)O2)nc2c1CCC2 [Example 202]
< 100 nM

// fetch EC50 given entry Cc1cc(Cl)c2nc(NC3=NCC4(CN5CCC4CC5)O3)sc2c1 (centres unmarked) [Example 103]
100 to 1000 nM

// fetch EC50 given entry Cc1ccc2nc(NC3=NC[C@@]4(CN5CCC4CC5)O3)ccc2c1 [Example 157]
100 to 1000 nM

// fetch EC50 given entry COc1nc(C)nc2sc(NC3=NC[C@@]4(CN5CCC4CC5)O3)nc12 [Example 273]
1000 to 100000 nM

// fetch EC50 given entry c1ccc2[nH]c(NC3=NCC4(CN5CCC4CC5)O3)nc2c1 (single isomer, unassigned) [Example 8b]
1000 to 100000 nM

// fetch EC50 given entry Cn1c(-c2ccccc2)cnc1NC1=NCC2(CN3CCC2CC3)O1 (centres unmarked) [Example 96]
1000 to 100000 nM

// fetch EC50 given entry COc1ccc2nc(NC3=NCC4(CN5CCC4CC5)O3)[nH]c2c1 (centres unmarked) [Example 76]
100 to 1000 nM

// fetch EC50 given entry c1csc(NC2=NCC3(CN4CCC3CC4)O2)n1 (single isomer, unassigned) [Example 16a]
1000 to 100000 nM

// fetch EC50 given entry Cc1nnc(NC2=NC[C@@]3(CN4CCC3CC4)O2)nc1C [Example 182]
100 to 1000 nM

// fetch EC50 given entry c1ccc(-c2cnc(NC3=NCC4(CN5CCC4CC5)O3)s2)cc1 (single isomer, unassigned) [Example 4b]
100 to 1000 nM

// fetch EC50 given entry O=c1ccc2nc(NC3=NC[C@@]4(CN5CCC4CC5)O3)sc2[nH]1 [Example 237]
< 100 nM

// fetch EC50 given entry CN(C)c1ncc2nc(NC3=NC[C@@]4(CN5CCC4CC5)O3)sc2n1 [Example 269]
1000 to 100000 nM

###

# ASSAYED_SYSTEM: α-7 nicotinic acetylcholine receptor channel expressed in HEK 293 cells (Rattus norvegicus, UniProt Q05941)
# Construct: expressed in transfected cells
# EXPERIMENT_DESCRIPTION: Ca2+-sensitive fluorescence-based FLIPR assay, α7 nicotinic ACh receptor channel function (agonist)
# Assay type: cell-based
# MEASUREMENT_SETUP: FLIPR α7 activity rating (EC50, nM), Table 1; HEK 293 cells, agonist Ca2+ flux
OBSERVATION_TYPE: EC50

// fetch EC50 given entry O=C1CCCc2nc(NC3=NC[C@@]4(CN5CCC4CC5)O3)ncc21
100 to 1000 nM

// fetch EC50 given entry Cc1cnc(NC2=NC[C@@]3(CN4CCC3CC4)O2)nc1-c1ccccc1
< 100 nM

// fetch EC50 given entry Cc1nc(NC2=NC[C@@]3(CN4CCC3CC4)O2)nc(Cl)c1C
< 100 nM

// fetch EC50 given entry COc1ccc(-c2cc(NC3=NC[C@@]4(CN5CCC4CC5)O3)ncn2)cc1
< 100 nM

// fetch EC50 given entry N#Cc1ccnc(NC2=NC[C@@]3(CN4CCC3CC4)O2)c1
100 to 1000 nM

// fetch EC50 given entry c1csc(NC2=NCC3(CN4CCC3CC4)O2)n1 (racemic) [Example 16]
100 to 1000 nM

// fetch EC50 given entry c1ccc2c(c1)CCc1cnc(NC3=NC[C@@]4(CN5CCC4CC5)O3)nc1-2 [Example 153]
100 to 1000 nM

// fetch EC50 given entry c1nc(NC2=NC[C@@]3(CN4CCC3CC4)O2)nc2c1CCCC2
< 100 nM

// fetch EC50 given entry Cc1ccc2nc(NC3=NCC4(CN5CCC4CC5)O3)sc2c1 (centres unmarked) [Example 12]
100 to 1000 nM

// fetch EC50 given entry c1ccc2c(NC3=NCC4(CN5CCC4CC5)O3)n[nH]c2c1 (centres unmarked)
< 100 nM

// fetch EC50 given entry Fc1cc2nc(NC3=NCC4(CN5CCC4CC5)O3)sc2cc1F (centres unmarked)
100 to 1000 nM

// fetch EC50 given entry Clc1ccnc(NC2=NC[C@@]3(CN4CCC3CC4)O2)c1Cl
100 to 1000 nM

// fetch EC50 given entry Brc1ccc2nc(NC3=NC[C@@]4(CN5CCC4CC5)O3)ncc2c1
< 100 nM

// fetch EC50 given entry c1ccc2ncc(NC3=NCC4(CN5CCC4CC5)O3)cc2c1 (centres unmarked)
1000 to 100000 nM

// fetch EC50 given entry Fc1ccc(NC2=NC[C@@]3(CN4CCC3CC4)O2)nc1
< 100 nM

// fetch EC50 given entry Cc1cc(C)c2cnc(NC3=NC[C@@]4(CN5CCC4CC5)O3)cc2c1
100 to 1000 nM

// fetch EC50 given entry COc1nccnc1NC1=NCC2(CN3CCC2CC3)O1 (racemic)
100 to 1000 nM
